Hello, the source for this data is patent US4645778A, in case you need it.

Tested on: anaesthetised dog
Test: Anti-angina activity: haemodynamic effects in the anaesthetised dog
Format: in vivo
Details: Canis lupus familiaris, iv, 5 mg.kg^-1 intravenously, read-out: CORONARY FLOW Variation
Readings of change in vivo at 5 mg/kg for the listed compounds
Give just the number in %; leave the unit off.

Reference set, count: 7
Cc1cccc(C)c1N(Cc1ccccc1)CC(COCC(C)C)N1CCCC1 (centres unmarked) [Compound 8] = 85
CC(C)COCC(CN(Cc1ccccc1)c1cc(Cl)cc(Cl)c1)N1CCCC1 (centres unmarked) [Compound 7] = 31
CC(C)COCC(CN(Cc1ccccc1)c1ccc2c(c1)OCO2)N1CCCC1 (centres unmarked) [Compound 11] = 116
COc1ccc(N(Cc2ccccc2)CC(COCC(C)C)N2CCCC2)cc1 (centres unmarked) [Compound 3] = 196
CC(C)COCC(CN(Cc1ccccc1)c1ccc(Cl)c(Cl)c1)N1CCCC1 (centres unmarked) [Compound 2] = 39
CC(C)COCC(CN(Cc1ccccc1)c1cccc(Cl)c1)N1CCCC1 (centres unmarked) [Compound 5] = 98
CC(C)COCC(CN(Cc1ccccc1)c1ccc(Cl)cc1)N1CCCC1 (centres unmarked) [Compound 4] = 32

Turning to the following compound.
**Q:** Given the entry CC(C)COCC(CN(Cc1ccccc1)c1cccc(C(F)(F)F)c1)N1CCCC1 (centres unmarked) [Compound 6] , report its measured change in vivo at 5 mg/kg.
**A:** 20

* * *

System: anaesthetised dog
Assay: Anti-angina activity: haemodynamic effects in the anaesthetised dog
Type: in vivo
Conditions: 5 mg.kg^-1 intravenously
MEASURE NAME: CORONARY FLOW Duration (min)
Give just the number in min; leave the unit off.

Reference set, count: 5
Cc1cccc(C)c1N(Cc1ccccc1)CC(COCC(C)C)N1CCCC1 (centres unmarked) = 15
CC(C)COCC(CN(Cc1ccccc1)c1ccc2c(c1)OCO2)N1CCCC1 (centres unmarked) = 20
CC(C)COCC(CN(Cc1ccccc1)c1ccc(Cl)c(Cl)c1)N1CCCC1 (centres unmarked) = 10
CC(C)COCC(CN(Cc1ccccc1)c1cccc(Cl)c1)N1CCCC1 (centres unmarked) = 15
COc1ccc(N(Cc2ccccc2)CC(COCC(C)C)N2CCCC2)cc1 (centres unmarked) = 20

**Q:** Given the entry CC(C)COCC(CN(Cc1ccccc1)c1cccc(C(F)(F)F)c1)N1CCCC1 (centres unmarked) , report its measured CORONARY FLOW Duration.
**A:** 1

**Q:** Given the entry CC(C)COCC(CN(Cc1ccccc1)c1ccc(Cl)cc1)N1CCCC1 (centres unmarked) , report its measured CORONARY FLOW Duration.
**A:** 3

**Q:** Given the entry CC(C)COCC(CN(Cc1ccccc1)c1cc(Cl)cc(Cl)c1)N1CCCC1 (centres unmarked) , report its measured CORONARY FLOW Duration.
**A:** 5

* * *

Readings of ANTI-TACHYCARDIAC ACTION Duration for the listed compounds
System: anaesthetised dog
Test: Anti-angina activity: haemodynamic effects in the anaesthetised dog
Format: in vivo
Details: inhibition of positive chronotropic effects of isoprenaline, 5 mg.kg^-1 intravenously
Give just the number in min; leave the unit off.

Reference set, count: 3
Cc1cccc(C)c1N(Cc1ccccc1)CC(COCC(C)C)N1CCCC1 (centres unmarked) = 15
CC(C)COCC(CN(Cc1ccccc1)c1cccc(Cl)c1)N1CCCC1 (centres unmarked) = 15
COc1ccc(N(Cc2ccccc2)CC(COCC(C)C)N2CCCC2)cc1 (centres unmarked) = 30

**Q:** Given the entry CC(C)COCC(CN(Cc1ccccc1)c1cc(Cl)cc(Cl)c1)N1CCCC1 (centres unmarked) , report its measured ANTI-TACHYCARDIAC ACTION Duration.
**A:** 45

**Q:** Given the entry CC(C)COCC(CN(Cc1ccccc1)c1ccc2c(c1)OCO2)N1CCCC1 (centres unmarked) , report its measured ANTI-TACHYCARDIAC ACTION Duration.
**A:** 45

**Q:** Given the entry CC(C)COCC(CN(Cc1ccccc1)c1ccc(Cl)c(Cl)c1)N1CCCC1 (centres unmarked) , report its measured ANTI-TACHYCARDIAC ACTION Duration.
**A:** 15
